# SYSTEM TESTED: T1, recombinant human CTGF protein (R&D Systems, SEQ ID NO: 79) (human, UniProt P29279 27-349)
# T1 construct: Bought; also called human CTGF/CNN2; huCTGF
# T1 sequence: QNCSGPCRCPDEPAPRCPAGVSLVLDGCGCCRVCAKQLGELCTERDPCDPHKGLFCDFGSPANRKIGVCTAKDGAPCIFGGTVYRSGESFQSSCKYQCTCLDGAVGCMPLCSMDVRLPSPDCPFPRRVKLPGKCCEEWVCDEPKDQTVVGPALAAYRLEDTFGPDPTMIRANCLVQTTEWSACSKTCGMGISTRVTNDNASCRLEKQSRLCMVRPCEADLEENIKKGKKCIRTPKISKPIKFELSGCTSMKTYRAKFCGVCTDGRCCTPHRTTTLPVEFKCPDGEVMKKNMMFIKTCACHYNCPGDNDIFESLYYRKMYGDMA
# TEST DETAILS: HTRF, 1 nM biotinylated human CTGF
pEC50: −log10 of the molar value.

>  <BINDER>
fusion protein of SEQ ID NO: 75 (designed binder, not shown: C-terminal His-tag) QDSTSDLIPAPPLSKVPLQQNFQDNQFQGKWYVVGLAGNAILREDKQPAKMFATIYELKEDKSYDVTSVRFEAKSCKYTIKTFVPGSQPGEFTAGYIKSAPGQTSTLVRVVSTNYNQHAMVFFKHVTQNREIFVITLYGRTKELTSELKENFIRFSKSLGLPENHIVFPVPIDQCIDGGGGGSGGGGSGGGGSQDSTSDLIPAPPLSKVPLQQNFQDNQFQGKWYVVGLAGNYRLREDKDPSKMGATIYELKEDKSYDVTQVQFDDKKCLYVIETFVPGSQPGEFTLGAIKSYPGLTSQLVRVVSTNYNQHAMVFVKKVWPNLEYFQIVLYGRTKELTSELKENFIRFSKSLGLPENHIVFPVPIDQCIDG

>  <pEC50>
9.15

$$$$
>  <BINDER>
fusion protein of SEQ ID NO: 70 (designed binder, not shown: C-terminal His-tag) QDSTSDLIPAPPLSKVPLQQNFQDNQFQGKWYVVGWAGNVKLREDKQPQKMSATIYELKEDKSYDVTEVVFEQKKCHYIIKTFVPGSQPGEFTAGDIKSPPGYTSSLVRVVSTNYNQHAMVFFKKVSQNREFFWITLYGRTKELTSELKENFIRFSKSLGLPENHIVFPVPIDQCIDGGGGGSGGGGSGGGGSQDSTSDLIPAPPLSKVPLQQNFQDNQFQGKWYVVGLAGNAILREDKQPAKMFATIYELKEDKSYDVTSVRFEAKSCKYTIKTFVPGSQPGEFTAGYIKSAPGQTSTLVRVVSTNYNQHAMVFFKHVTQNREIFVITLYGRTKELTSELKENFIRFSKSLGLPENHIVFPVPIDQCIDG

>  <pEC50>
9.14

$$$$
>  <BINDER>
fusion protein of SEQ ID NO: 76 (designed binder, not shown: C-terminal His-tag) QDSTSDLIPAPPLSKVPLQQNFQDNQFQGKWYVVGLAGNAILREDKQPAKMFATIYELKEDKSYDVTSVRFEAKSCKYTIKTFVPGSQPGEFTAGYIKSAPGQTSTLVRVVSTNYNQHAMVFFKHVTQNREIFVITLYGRTKELTSELKENFIRFSKSLGLPENHIVFPVPIDQCIDGGGGGSGGGGSGGGGSQDSTSDLIPAPPLSKVPLQQNFQDNQFQGKWYVVGWAGNVKLREDKQPLKMSATIYELKEDKSYDVTEVVFEQKKCHYIIKTFVPGSQPGEFTAGDIKSPPGYTSSLVRVVSTNYNQHAMVFFKKVSQNREFFWITLYGRTKELTSELKENFIRFSKSLGLPENHIVFPVPIDQCIDG

>  <pEC50>
9.21

$$$$
>  <BINDER>
fusion protein of SEQ ID NO: 68 (designed binder, not shown: C-terminal His-tag) QDSTSDLIPAPPLSKVPLQQNFQDNQFQGKWYVVGLAGNAILREDKQPAKMFATIYELKEDKSYDVTSVRFEAKSCSYTSKTFVPGSQPGEFTAGNIKSAPGQTSTLVRVVSTNYNQHAMVFFKHVSQNRETFVITLYGRTKELTSELKENFIRFSKSLGLPENHIVFPVPIDQCIDGGGGGSGGGGSGGGGSQDSTSDLIPAPPLSKVPLQQNFQDNQFQGKWYVVGWAGNVKLREDKQPQKMSATIYELKEDKSYDVTEVVFEQKKCHYIIKTFVPGSQPGEFTAGDIKSPPGYTSSLVRVVSTNYNQHAMVFFKKVSQNREFFWITLYGRTKELTSELKENFIRFSKSLGLPENHIVFPVPIDQCIDG

>  <pEC50>
9.25

$$$$
